B1: TRIM29 (parent)
chain: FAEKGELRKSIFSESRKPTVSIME

variants of: B1; test: protein stability index of a GFP-peptide fusion (GPS, HEK-293T) (PSI 1-6); higher = more stable; details: c terminus: a fixed tail appended;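 further: lentivirally expressed fusions sorted by FACS into six bins by GFP to DsRed ratio, PSI derived from sequencing read proportions per bin multiplied by bin number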
Entries and their measured protein stability index follow.

| Mutation Code | protein stability index |
| --- | --- |
| M23V | 2.01 |
| G5H | 2.3 |
| P18Q | 1.34 |
| E24S | 1.65 |
| A2I | 1.89 |
| S15M | 2.04 |
| K9P | 2.23 |
| T19A | 3 |
| S21A | 2.12 |
| S21V | 2.17 |
| S21C | 1.49 |
| S15Y | 2.04 |
| K9A | 1.77 |
| I22N | 1.74 |
| A2W | 2.74 |
| S10Q | 1.52 |
| E24P | 2.23 |
| F12Q | 3.72 |
| S13D | 2.42 |
| G5W | 2.04 |
| E24L | 2.98 |
| A2D | 3.76 |
